B1: C22orf15 (parent)
chain: PRGRAHLLPNPYQQDFLGLPEELR

Variants of: B1
measurement_description: protein stability index of a GFP-peptide fusion (GPS, HEK-293T) (PSI 1-6); higher = more stable;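 further: lentivirally expressed fusions sorted by FACS into six bins by GFP to DsRed ratio, PSI derived from sequencing read proportions per bin multiplied by bin number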
assay_conditions: c terminus: a fixed tail appended

| var | protein stability index |
| --- | --- |
| P1K | 3.22 |
| P1D | 4.1 |
| N10W | 2.88 |
| L8R | 3.56 |
| L19I | 3.57 |
| R24Q | 3.89 |
| P1S | 3.23 |
| L23G | 4.41 |
| P11A | 3.41 |
| L8S | 3.93 |
| G3S | 3.52 |
| F16Y | 4.17 |
| E21F | 3.42 |
| R4L | 3.59 |
| H6R | 3.71 |
| L8T | 3.23 |
| F16R | 4.15 |
| P11L | 3.42 |
| P20E | 4.08 |
| N10V | 4.14 |
| F16D | 4.92 |
| P20C | 2.85 |
| L17I | 2.85 |
| Q14F | 3.66 |
| G3I | 3.83 |
| L8I | 3.94 |
| G18Q | 4.27 |
| P9I | 2.88 |
| L7Y | 3.92 |
| L7G | 4.08 |
| P11S | 3.83 |
| L7K | 4 |
| N10M | 3.54 |
| E22L | 2.3 |
| R4H | 4.06 |
| R4G | 4.27 |
| P9W | 2.53 |
| D15Y | 3.2 |
| H6E | 4.58 |
| R2A | 4.04 |
| P9L | 3.35 |
| A5W | 2.62 |
| E21C | 3.3 |
| L23D | 4.49 |
| R4E | 3.96 |
| D15E | 3.74 |
| Q14H | 3.92 |
| Q13K | 3.65 |
| R24N | 3.94 |
| D15V | 3.36 |
| P20H | 3.37 |
| G3W | 3.27 |
| R4C | 2.85 |
| D15P | 3.76 |
| Q13M | 3.42 |
| E21I | 2.89 |
| P1F | 2.61 |
| A5N | 4.1 |
| L19P | 4.22 |
| L8A | 3.58 |
| Y12W | 2.87 |
| P11T | 4.1 |
| N10Y | 3.46 |
| F16A | 4.12 |
| N10P | 4.07 |
| H6S | 3.81 |
| L17P | 4.3 |
| N10T | 4.05 |
| F16V | 4.17 |
| A5F | 2.69 |
| E21T | 2.81 |
| Q13G | 4.1 |
| L17W | 3.37 |
| H6I | 3.65 |
| L17Q | 4.4 |
| Q14A | 3.73 |
| R2V | 3.81 |
| N10R | 3.53 |
| G3K | 3.16 |
| L7Q | 3.86 |
| Q13W | 2.7 |
| F16K | 4.22 |
| L8M | 3.95 |
| R4W | 2.96 |

Value source: the supplement of paper PMC10567573
